biological target: Calcium/calmodulin-dependent protein kinase type IV (Homo sapiens, UniProt Q16566); note: in the data inactive means no Kd found up to 30 µM
Sequence (Q16566 whole entry): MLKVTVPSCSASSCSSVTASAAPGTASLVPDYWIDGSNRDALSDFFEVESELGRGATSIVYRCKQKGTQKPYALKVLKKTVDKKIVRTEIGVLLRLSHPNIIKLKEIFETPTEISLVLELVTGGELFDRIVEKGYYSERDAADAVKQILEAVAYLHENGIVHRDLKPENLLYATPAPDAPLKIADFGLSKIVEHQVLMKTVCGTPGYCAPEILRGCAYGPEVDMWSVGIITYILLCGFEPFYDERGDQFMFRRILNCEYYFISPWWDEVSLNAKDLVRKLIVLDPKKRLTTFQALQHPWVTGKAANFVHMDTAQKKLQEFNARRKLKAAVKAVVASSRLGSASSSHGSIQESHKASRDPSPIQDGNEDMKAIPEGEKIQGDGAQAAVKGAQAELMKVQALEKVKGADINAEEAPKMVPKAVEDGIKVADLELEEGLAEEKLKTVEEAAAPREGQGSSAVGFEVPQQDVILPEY
Active and inactive are the calls of the source.
The reply should name one outcome from active, inactive

Known results for molecules:
Ask | Record request — test call for `O=C(Nc1ccc(OC(F)(F)F)cc1)c1sccc1NCc1ccnc2ccccc12`
Reply | inactive

Ask | Record request — test call for COc1cc2ncnc(Nc3ccc(F)c(Cl)c3)c2cc1NC(=O)/C=C/CN1CCCCC1 [DACOMITINIB ANHYDROUS]
Reply | inactive

Ask | Record request — test call for `O[C@H]1CC[C@H](Nc2ncc3nc(Nc4c(F)cc(F)cc4F)n([C@H]4CCOC4)c3n2)CC1`
Reply | inactive

Ask | Record request — test call for `Cc1ccc(C(=O)Nc2ccc(Oc3cc4cnn(C)c4cc3-c3cn[nH]c3)c(F)c2)c(=O)n1-c1ccc(F)cc1`
Reply | active

Ask | Record request — test call for `NC(=O)c1ccc(N(C(N)=O)c2c(F)cccc2F)nc1-c1ccc(F)cc1F`
Reply | inactive

More entries:
Ask | Record request — test call for `COc1cc2ncnc3c2cc1OCCCCCN(C)Cc1ccc(Br)cc1N3`
Reply | inactive

Ask | Record request — test call for `FC(F)(F)c1ccc(CNc2ccc(Cc3c[nH]c4ncc(Cl)cc34)cn2)cn1`
Reply | inactive

Ask | Record request — test call for `Cc1cc(Nc2nc(N[C@@H](C)c3ncc(F)cn3)ncc2Cl)n[nH]1`
Reply | inactive

* * *

target: Casein kinase I isoform alpha (Homo sapiens, UniProt P48729); note: in the data inactive means no Kd found up to 30 µM
Sequence (P48729 whole entry, canonical isoform): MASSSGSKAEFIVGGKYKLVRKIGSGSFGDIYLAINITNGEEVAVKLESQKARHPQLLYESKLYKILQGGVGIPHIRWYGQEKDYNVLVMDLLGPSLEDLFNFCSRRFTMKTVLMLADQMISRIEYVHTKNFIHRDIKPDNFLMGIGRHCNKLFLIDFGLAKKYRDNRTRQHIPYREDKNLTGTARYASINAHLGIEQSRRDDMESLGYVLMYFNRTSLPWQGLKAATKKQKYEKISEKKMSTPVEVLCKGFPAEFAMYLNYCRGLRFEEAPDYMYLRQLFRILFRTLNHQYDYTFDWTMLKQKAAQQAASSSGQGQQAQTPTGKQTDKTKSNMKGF
The source made the active and inactive calls.
The reply should name one outcome from Yes (active), No (inactive)

Ask | Record request — test call for `COc1cc2ncnc(Nc3ccc(O)cc3)c2cc1OC`
Reply | No

Switching to the query record.
Ask | Record request — test call for `CNC(=O)c1cc(COc2nnc(Nc3ccc(Cl)cc3)c3ccoc23)ccn1`
Reply | No

* * *

molecular target: Cyclin-dependent kinase 2 (Homo sapiens, UniProt P24941); note: in the data inactive means no Kd found up to 30 µM
Calls of active or inactive are those of the source.
The reply should name one outcome from active, inactive

Ask | Record request — test call for `O=c1[nH]c([C@@H]2CCCN2)nc2c1oc1ccc(Cl)cc12`
Reply | inactive

Ask | Record request — test call for `COc1cccc(Nc2ncnn3ccc(CN4CC[C@@H](N)[C@H](O)C4)c23)c1`
Reply | inactive

Ask | Record request — test call for `CN(c1ncccc1CNc1nc(Nc2ccc3c(c2)CC(=O)N3)ncc1C(F)(F)F)S(C)(=O)=O`
Reply | active

More entries:
Ask | Record request — test call for COc1cc2ncnc(Nc3ccc(F)c(Cl)c3)c2cc1NC(=O)/C=C/CN1CCCCC1 [DACOMITINIB ANHYDROUS]
Reply | inactive

Ask | Record request — test call for `C=CCn1c(=O)c2cnc(Nc3ccc(N4CCN(C)CC4)cc3)nc2n1-c1cccc(C(C)(C)O)n1`
Reply | inactive

Ask | Record request — test call for `O[C@H]1CC[C@H](Nc2ncc3nc(Nc4c(F)cc(F)cc4F)n([C@H]4CCOC4)c3n2)CC1`
Reply | inactive

* * *

# Kd per entry
target: Putative heat shock protein HSP 90-beta 2 (Homo sapiens); note: in the data inactive means no Kd found up to 30 µM
Sequence (Q58FF8 whole entry): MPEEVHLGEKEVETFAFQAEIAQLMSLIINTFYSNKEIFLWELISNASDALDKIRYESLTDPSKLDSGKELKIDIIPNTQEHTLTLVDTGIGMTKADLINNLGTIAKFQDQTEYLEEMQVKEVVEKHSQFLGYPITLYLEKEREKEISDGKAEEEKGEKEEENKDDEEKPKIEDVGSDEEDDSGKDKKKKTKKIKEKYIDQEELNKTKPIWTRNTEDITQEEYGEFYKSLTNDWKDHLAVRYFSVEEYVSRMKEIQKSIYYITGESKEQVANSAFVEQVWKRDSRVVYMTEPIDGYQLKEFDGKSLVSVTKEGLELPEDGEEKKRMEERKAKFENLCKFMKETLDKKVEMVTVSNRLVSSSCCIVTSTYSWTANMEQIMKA
Calls of active or inactive are those of the source.

Worked cases, answers included:
Ask | // output Kd; input O=C(Nc1ccc(OC(F)(F)F)cc1)c1sccc1NCc1ccnc2ccccc12 [OSI-930] ; system Putative heat shock protein HSP 90-beta 2 (Homo sapiens); note: in the data inactive means no Kd found up to 30 µM
Reply | > 30 µM (inactive)

Ask | // output Kd; input C=CCN(/C=C1/C(=O)O[C@H](COC)[C@@]2(C)C1=C(O)C(=O)C1=C2[C@H](OC(C)=O)C[C@]2(C)C(=O)CC[C@@H]12)CC=C [SONOLISIB] ; system Putative heat shock protein HSP 90-beta 2 (Homo sapiens); note: in the data inactive means no Kd found up to 30 µM
Reply | > 30 µM (inactive)

Ask | // output Kd; input CN(c1ncccc1CNc1nc(Nc2ccc3c(c2)CC(=O)N3)ncc1C(F)(F)F)S(C)(=O)=O [PF-00562271] ; system Putative heat shock protein HSP 90-beta 2 (Homo sapiens); note: in the data inactive means no Kd found up to 30 µM
Reply | > 30 µM (inactive)

# ---- query molecule ----
Ask | // output Kd; input C[C@@H]1COC(Nc2ccc3ncnc(Nc4ccc(OCc5nccs5)c(Cl)c4)c3c2)=N1 [VARLITINIB] ; system Putative heat shock protein HSP 90-beta 2 (Homo sapiens); note: in the data inactive means no Kd found up to 30 µM
Reply | > 30 µM (inactive)

* * *

target: cAMP-dependent protein kinase catalytic subunit alpha (Homo sapiens, UniProt P17612); note: in the data inactive means no Kd found up to 30 µM
The source made the active and inactive calls.
The reply should name one outcome from active, inactive

Known results for compounds:
Ask | Record request — test call for `Cc1cc(Nc2nc(N[C@@H](C)c3ncc(F)cn3)ncc2Cl)n[nH]1`
Reply | inactive

Ask | Record request — test call for `N#CCNC(=O)c1ccc(-c2ccnc(Nc3ccc(N4CCOCC4)cc3)n2)cc1`
Reply | inactive

Ask | Record request — test call for `COc1cc2ncnc3c2cc1OCCCCCN(C)Cc1ccc(Br)cc1N3`
Reply | inactive

Ask | Record request — test call for `Cc1cc(-c2cc(OC(=O)c3ccccc3)ccc2Cl)cc2nnc(Nc3ccc(OCCN4CCCC4)cc3)nc12`
Reply | inactive

Ask | Record request — test call for `COc1cc(F)c(F)c(Nc2ccc(I)cc2F)c1NS(=O)(=O)C1(C[C@H](O)CO)CC1`
Reply | inactive

Switching to the query record.
Ask | Record request — test call for `O=c1[nH]c([C@@H]2CCCN2)nc2c1oc1ccc(Cl)cc12`
Reply | inactive

* * *

molecular target: Mitogen-activated protein kinase kinase kinase 2 (Homo sapiens, UniProt Q9Y2U5); note: in the data inactive means no Kd found up to 30 µM
Sequence (Q9Y2U5 whole entry): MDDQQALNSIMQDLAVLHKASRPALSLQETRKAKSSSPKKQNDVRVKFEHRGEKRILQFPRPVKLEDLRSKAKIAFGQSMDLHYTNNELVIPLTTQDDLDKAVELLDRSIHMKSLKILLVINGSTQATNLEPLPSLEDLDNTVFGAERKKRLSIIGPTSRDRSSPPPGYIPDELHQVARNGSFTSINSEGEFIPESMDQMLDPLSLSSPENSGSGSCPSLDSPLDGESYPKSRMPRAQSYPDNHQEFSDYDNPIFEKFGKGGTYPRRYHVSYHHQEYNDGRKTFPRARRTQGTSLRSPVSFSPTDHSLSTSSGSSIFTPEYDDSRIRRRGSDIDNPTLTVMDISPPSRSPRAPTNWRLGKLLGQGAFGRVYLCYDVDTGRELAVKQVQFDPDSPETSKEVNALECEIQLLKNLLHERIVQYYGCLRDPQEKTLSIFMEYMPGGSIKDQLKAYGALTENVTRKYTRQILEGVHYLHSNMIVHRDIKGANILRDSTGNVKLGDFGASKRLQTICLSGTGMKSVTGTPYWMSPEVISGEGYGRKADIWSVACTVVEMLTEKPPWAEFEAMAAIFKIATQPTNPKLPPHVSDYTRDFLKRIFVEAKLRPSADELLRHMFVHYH
Activity calls are given as the source filed them.
assayReadout: Kd

Worked cases, answers included:
Ask | Note Kd for the molecule shown: Cc1c(NC(=O)OC[C@@H]2COCCN2)cn2ncnc(Nc3ccc4c(cnn4Cc4cccc(F)c4)c3)c12 [AC-480]
Reply | > 30 µM (inactive)

Ask | Note Kd for the molecule shown: C=CC(=O)Nc1cccc(Nc2nc(Nc3ccc(N4CCN(C(C)=O)CC4)cc3OC)ncc2C(F)(F)F)c1 [ROCILETINIB]
Reply | > 30 µM (inactive)

Ask | Note Kd for the molecule shown: CC(C)(O)CC(=O)NCCn1ccc2ncnc(Nc3ccc(Oc4cccc(C(F)(F)F)c4)c(Cl)c3)c21 [TAK-285]
Reply | > 30 µM (inactive)

Ask | Note Kd for the molecule shown: COc1cccc2cc(-c3nc([C@H]4CC[C@H](C(=O)O)CC4)n4ncnc(N)c34)[nH]c12 [OSI-027]
Reply | > 30 µM (inactive)

Ask | Note Kd for the molecule shown: COCCN1CCN(Cc2ccc(-c3n[nH]c4c3C(=O)c3c(NC(=O)NN5CCOCC5)cccc3-4)cc2)CC1 [RGB-286638]
Reply | > 30 µM (inactive)

# ---- query molecule ----
Ask | Note Kd for the molecule shown: CN1CCN(c2nc(C3=C(c4c[nH]c5ccccc45)C(=O)NC3=O)c3ccccc3n2)CC1 [SOTRASTAURIN]
Reply | > 30 µM (inactive)

* * *

target: Tyrosine-protein kinase Fyn (Homo sapiens); note: in the data inactive means no Kd found up to 30 µM
Sequence (P06241 whole entry): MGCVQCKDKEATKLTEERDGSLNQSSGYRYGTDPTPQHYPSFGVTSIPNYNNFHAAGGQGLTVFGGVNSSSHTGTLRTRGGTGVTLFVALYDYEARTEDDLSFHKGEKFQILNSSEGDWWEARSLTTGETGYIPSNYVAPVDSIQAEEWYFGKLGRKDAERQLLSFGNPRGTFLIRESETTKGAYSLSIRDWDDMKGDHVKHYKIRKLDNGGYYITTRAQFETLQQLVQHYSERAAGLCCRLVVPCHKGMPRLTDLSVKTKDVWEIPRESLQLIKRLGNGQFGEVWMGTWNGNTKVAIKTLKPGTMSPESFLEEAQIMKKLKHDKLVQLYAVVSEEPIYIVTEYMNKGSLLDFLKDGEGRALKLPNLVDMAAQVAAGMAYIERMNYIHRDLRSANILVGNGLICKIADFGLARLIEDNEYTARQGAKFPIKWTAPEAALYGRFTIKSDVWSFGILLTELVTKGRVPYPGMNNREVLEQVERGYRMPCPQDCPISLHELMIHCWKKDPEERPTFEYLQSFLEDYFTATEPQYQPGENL
The source made the active and inactive calls.
The reply should name one outcome from active, inactive

Known results for compounds:
Ask | Record request — test call for CCc1nc(C(N)=O)c(Nc2ccc(N3CCC(N4CCN(C)CC4)CC3)c(OC)c2)nc1NC1CCOCC1 [GILTERITINIB]
Reply | inactive

Ask | Record request — test call for COc1cc(Nc2ncc(F)c(Nc3ccc4c(n3)N(COP(=O)(O)O)C(=O)C(C)(C)O4)n2)cc(OC)c1OC [FOSTAMATINIB]
Reply | inactive

Ask | Record request — test call for C=CCN(/C=C1/C(=O)O[C@H](COC)[C@@]2(C)C1=C(O)C(=O)C1=C2[C@H](OC(C)=O)C[C@]2(C)C(=O)CC[C@@H]12)CC=C [SONOLISIB]
Reply | inactive

Ask | Record request — test call for CC1(COc2ccc3c(c2)ncn3-c2ccc3cccc(N4CCC(N)CC4)c3n2)COC1 [CRENOLANIB]
Reply | inactive

Ask | Record request — test call for Cc1c(NC(=O)OC[C@@H]2COCCN2)cn2ncnc(Nc3ccc4c(cnn4Cc4cccc(F)c4)c3)c12 [AC-480]
Reply | inactive

Ask | Record request — test call for O=C(O)c1ccc2c(c1)nc(Nc1cccc(Cl)c1)c1ccncc12 [SILMITASERTIB]
Reply | inactive

Ask | Record request — test call for CNC(=O)c1ccc(Nc2ncc(C(F)(F)F)c(NCc3nccnc3N(C)S(C)(=O)=O)n2)cc1 [DEFACTINIB]
Reply | inactive

Ask | Record request — test call for NC(=O)c1ccc(N(C(N)=O)c2c(F)cccc2F)nc1-c1ccc(F)cc1F [VX-702]
Reply | inactive

More entries:
Ask | Record request — test call for COc1cccc2cc(-c3nc([C@H]4CC[C@H](C(=O)O)CC4)n4ncnc(N)c34)[nH]c12 [OSI-027]
Reply | inactive

Ask | Record request — test call for CC(C)CC(=O)Nc1[nH]nc2c1CN(C(=O)C1CCN(C)CC1)C2(C)C [PHA-793887]
Reply | inactive

Ask | Record request — test call for COc1cccc(Nc2ncnn3ccc(CN4CC[C@@H](N)[C@H](O)C4)c23)c1 [BMS-690514]
Reply | active

Ask | Record request — test call for C#Cc1cccc(Nc2ncnc3cc4c(cc23)OCCOCCOCCO4)c1 [ICOTINIB]
Reply | inactive

Ask | Record request — test call for O=S(=O)(c1cccc2c(O)nccc12)N1CCCNCC1 [HYDROXYFASUDIL]
Reply | inactive
